system: p38-delta; conditions: concentration: 1 μM,replicates: in singlicate; n = 1;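 also: KINOMEscan kinase panel screen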
Measurement type: %Inh (%)
// units = %; emit number, no label

[Q] Endpoint output: %Inh of C[C@@H](Oc1cc(-n2cnc3cc(-c4cnn(C)c4)ccc32)sc1C(N)=O)c1ccccc1Cl [GSK580432] . Value?
[A] 0

[Q] Endpoint output: %Inh of "CN(c1cccc(CNc2nc(Nc3ccc4c(c3)CC(=O)N4)ncc2C(F)(F)F)c1)S(C)(=O)=O" . Value?
[A] 11

[Q] Endpoint output: %Inh of COc1cc2ncn(-c3cc(OCC4CCCCC4)c(C(N)=O)s3)c2cc1OC [GSK204559] . Value?
[A] 28

[Q] Endpoint output: %Inh of "NC(=O)c1ccc(-c2cc3ncnc(SCC(=O)O)c3s2)cc1" . Value?
[A] 24
